Lab note: IC50 readings collected with VEGFR-2 (KDR) (Homo sapiens, UniProt P35968) for the following compounds.
Sequence (P35968 20-1356): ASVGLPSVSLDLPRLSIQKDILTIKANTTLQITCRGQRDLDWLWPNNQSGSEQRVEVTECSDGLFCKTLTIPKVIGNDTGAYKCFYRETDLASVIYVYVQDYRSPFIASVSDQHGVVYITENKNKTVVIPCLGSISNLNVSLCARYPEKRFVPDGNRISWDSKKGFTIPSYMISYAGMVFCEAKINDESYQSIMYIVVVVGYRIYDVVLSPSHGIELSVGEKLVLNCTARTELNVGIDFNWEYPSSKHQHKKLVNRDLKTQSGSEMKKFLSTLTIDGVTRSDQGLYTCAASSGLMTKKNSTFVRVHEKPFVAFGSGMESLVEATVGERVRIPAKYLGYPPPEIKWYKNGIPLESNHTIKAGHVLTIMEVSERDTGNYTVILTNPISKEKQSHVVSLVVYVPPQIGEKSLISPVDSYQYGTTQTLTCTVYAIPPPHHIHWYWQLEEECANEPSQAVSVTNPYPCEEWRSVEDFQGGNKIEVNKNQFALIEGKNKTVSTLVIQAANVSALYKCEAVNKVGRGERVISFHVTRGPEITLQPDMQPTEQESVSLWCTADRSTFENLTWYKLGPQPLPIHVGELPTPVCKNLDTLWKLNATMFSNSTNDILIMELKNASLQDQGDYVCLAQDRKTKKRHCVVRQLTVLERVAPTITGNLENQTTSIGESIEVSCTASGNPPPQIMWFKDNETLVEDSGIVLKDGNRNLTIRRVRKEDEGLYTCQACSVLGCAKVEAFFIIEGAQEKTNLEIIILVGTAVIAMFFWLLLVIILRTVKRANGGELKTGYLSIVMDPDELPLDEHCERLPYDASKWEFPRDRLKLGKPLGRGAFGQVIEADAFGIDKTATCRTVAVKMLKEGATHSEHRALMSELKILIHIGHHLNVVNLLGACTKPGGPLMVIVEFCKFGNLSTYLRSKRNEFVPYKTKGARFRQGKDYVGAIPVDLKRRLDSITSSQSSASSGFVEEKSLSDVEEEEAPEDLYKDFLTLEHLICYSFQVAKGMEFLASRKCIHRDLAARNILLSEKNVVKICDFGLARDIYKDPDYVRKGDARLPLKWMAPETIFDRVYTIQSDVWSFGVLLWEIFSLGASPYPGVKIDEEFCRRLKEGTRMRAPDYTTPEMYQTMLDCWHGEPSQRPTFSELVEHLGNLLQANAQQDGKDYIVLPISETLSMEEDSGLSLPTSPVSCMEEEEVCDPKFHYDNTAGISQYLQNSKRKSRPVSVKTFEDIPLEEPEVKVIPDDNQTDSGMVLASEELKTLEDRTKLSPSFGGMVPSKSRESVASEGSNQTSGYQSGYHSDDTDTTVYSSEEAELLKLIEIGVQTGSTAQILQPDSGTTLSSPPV
Use µM as the unit, but write only the number.

Q) What value of IC50 has been reported for the following compound? CCOC(=O)c1c(C)oc2ncnc(Oc3ccc(NC(=O)Nc4cccc(OC)c4)cc3)c12 [Compound 16c]
A) 0.551

Q) Can you handle CCOC(=O)c1c(C)oc2ncnc(Oc3ccc(NC(=O)Nc4ccc(C)c(Cl)c4)cc3)c12 [Compound 16e] next?
A) 0.122

Q) Follow-up entry: CCOC(=O)c1c(C)oc2ncnc(Nc3ccc(NC(=O)Nc4cccc(C)c4)cc3)c12 [Compound 15b]
A) 0.946

Q) And Cc1cccc(NC(=O)Nc2ccc(Oc3ncnc4sc5c(c34)CCCC5)cc2)c1 [Compound 21b] ?
A) 0.0334

Q) Can you handle COc1cccc(NC(=O)Nc2ccc(Oc3ncnc4sc5c(c34)CCCC5)cc2)c1 [Compound 21c] next?
A) 0.047

Q) Item: CCOC(=O)c1c(C)oc2ncnc(Oc3ccc(NC(=O)Nc4cccc(C)c4)cc3)c12 [Compound 16b]
A) 1

Q) Now give it for CC(=O)c1cccc(NC(=O)Nc2ccc(Nc3ncnc4sc5c(c34)CCCC5)cc2)c1 [Compound 20g] too.
A) 1.5

Q) Let us now turn to O=C(Nc1ccccc1)Nc1ccc(Oc2ncnc3sc4c(c23)CCCC4)cc1 [Compound 21a]
A) 0.454

Q) Param item: CCOC(=O)c1c(C)oc2ncnc(Nc3ccc(NC(=O)Nc4ccc(C)c(Cl)c4)cc3)c12 [Compound 15f]
A) 2.1

Q) What about Cc1ccc(NC(=O)Nc2ccc(Oc3ncnc4sc5c(c34)CCCC5)cc2)cc1Cl [Compound 21e] ?
A) 0.021
